Every entry's value here was drawn from patent US20260130395A1.

# PROCEDURE_TEXT: Stability of cannabinoid compounds and Vitamin E components in Beverage 2 (AB Red) by LCMSMS
# Assay type: physicochemical
# CONDITION_NOTES: stored at 8° C., 23 days
ENDPOINT_LABEL: Stability of Plant-Derived Cannabinoid Compounds in AB Red

| COMPOUND | RESULT |
| --- | --- |
| CCCCCc1cc2c(c(O)c1C(=O)O)[C@@H]1C=C(C)CC[C@H]1C(C)(C)O2 [D9 THCA, delta-9-tetrahydrocannabinolic acid] | 1.33 µg/mL |

Query string: For the compound CCCc1cc(O)c2c(c1)OC(C)(C)[C@@H]1CCC(C)=C[C@@H]21 [THCV, delta-9-tetrahydrocannabivarin] , what Stability of Plant-Derived Cannabinoid Compounds in AB Red is on record?
Result string: 3.25 µg/mL

Query string: Please answer likewise for CCCCCc1cc(O)c2c(c1)OC(C)(CCC=C(C)C)C=C2 (stereo not drawn)
Result string: 0.287 µg/mL

Query string: Please answer likewise for C=C(C)[C@@H]1CCC(C)=C[C@H]1c1c(O)cc(CCC)cc1O
Result string: 0.194 µg/mL

Query string: Please answer likewise for CCCCCc1cc(O)c(C/C=C(\C)CCC=C(C)C)c(O)c1
Result string: 4.66 µg/mL

Query string: Please answer likewise for CCCCCc1cc(O)c2c(c1)OC(C)(C)[C@@H]1CCC(C)=C[C@@H]21 [D9 THC, delta-9-tetrahydrocannabinol, reference compound]
Result string: 12.9 µg/mL

Query string: Please answer likewise for CCCCCc1cc(O)c2c(c1)OC1(C)CCC3C1C2C3(C)C (stereo not drawn)
Result string: 0.502 µg/mL

Query string: Please answer likewise for CCCCCc1cc(O)c2c(c1)OC(C)(C)c1ccc(C)cc1-2
Result string: 2.79 µg/mL

Query string: Please answer likewise for C=C(C)[C@@H]1CCC(C)=C[C@H]1c1c(O)cc(CCCCC)c(C(=O)O)c1O
Result string: 1.63 µg/mL

----------
# PROCEDURE_TEXT: Stability of cannabinoid compounds and Vitamin E components in Beverage 2 (AB Red) by LCMSMS
# Assay type: physicochemical
# CONDITION_NOTES: stored at 8° C., 150 days
Each entry below lists one item and its recorded Stability of Plant-Derived Cannabinoid Compounds in AB Red value.
Express your answer in µg/mL, writing the number without its unit.

Below are worked cases with known answers.
| COMPOUND | NUMERIC_READOUT |
| --- | --- |
| CCCCCc1cc(O)c(C/C=C(\C)CCC=C(C)C)c(O)c1 [CBG, cannabigerol] | 4.67 |
| CCCCCc1cc(O)c2c(c1)OC(C)(CCC=C(C)C)C=C2 (centres unmarked) [CBC, cannabichromene] | 0.281 |
| CCCCCc1cc(O)c2c(c1)OC(C)(C)c1ccc(C)cc1-2 [CBN, cannabinol] | 2.69 |

Query string: For the compound CCCc1cc(O)c2c(c1)OC(C)(C)[C@@H]1CCC(C)=C[C@@H]21 [THCV, delta-9-tetrahydrocannabivarin] , what Stability of Plant-Derived Cannabinoid Compounds in AB Red is on record?
Result string: 3.15

Query string: Please answer likewise for C=C(C)[C@@H]1CCC(C)=C[C@H]1c1c(O)cc(CCC)cc1O [CBDV, cannabidivarin]
Result string: 0.198
